Reported EC50 values for the following binders.
- targetDesc: T1, C-terminally FLAG-tagged human Gas6 recombinant protein (hGas6-F) (human, UniProt Q14393 31-678, gamma-carboxylated glutamic acid residues in the Gla domain (producer cells co-express rat VKOR and human GGCX); positions not given)
- T1 construct: also called human Gas6-F; human Gas6 protein
- T1 sequence: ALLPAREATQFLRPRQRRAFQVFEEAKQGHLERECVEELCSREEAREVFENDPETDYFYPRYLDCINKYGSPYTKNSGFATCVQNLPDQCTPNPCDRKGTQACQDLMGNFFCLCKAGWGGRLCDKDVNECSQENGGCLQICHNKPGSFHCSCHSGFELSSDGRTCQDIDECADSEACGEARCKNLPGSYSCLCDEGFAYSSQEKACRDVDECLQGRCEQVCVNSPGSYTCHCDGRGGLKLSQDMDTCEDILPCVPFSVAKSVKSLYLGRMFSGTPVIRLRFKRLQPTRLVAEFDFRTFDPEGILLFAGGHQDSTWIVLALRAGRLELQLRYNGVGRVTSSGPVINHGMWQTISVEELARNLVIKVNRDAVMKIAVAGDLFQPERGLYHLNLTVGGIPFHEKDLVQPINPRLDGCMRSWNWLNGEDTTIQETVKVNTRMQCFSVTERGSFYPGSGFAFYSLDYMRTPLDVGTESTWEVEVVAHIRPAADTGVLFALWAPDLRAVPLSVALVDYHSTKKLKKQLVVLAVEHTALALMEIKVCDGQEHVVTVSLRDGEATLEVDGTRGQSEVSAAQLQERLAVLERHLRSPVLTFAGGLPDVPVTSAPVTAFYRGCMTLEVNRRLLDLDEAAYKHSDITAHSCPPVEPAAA
- assayNotes: ELISA, hGas6-F captured by anti-FLAG, anti-human IgG-HRP
Reply with just the number (in ng/mL).

# example entries with known answers
- binder: "KM5321 chimeric antibody (antibody, V domains shown, also called KM5321 chimera; B-01) VH: QIQLVQSGPELKKPGETVKISCRASGYTFTNYGMNWVKQAPGKGLKWMGWINTNTGEPTYTEEFKGRFAFSLETSATTAYLQINDLKNEDTATYFCARDEGWFVYWGQGTLITVSA VL: ETTVTQSPASLSVATGEKVTIRCITSTDIDDDMNWYQQKPGEPPKLLISEGNTLRPGVPSRFSSSGYGTDFVFTIENTLSEDVADYYCLQTDSVPLTFGAGTKLELK"
  reported: 6.78
- binder: "hzKM5321 LV7bHV0 antibody (antibody, V domains shown, Humanized; variant human IgG4 constant region (EU S228P, L235E, R409K), human kappa; also called B-10; LV7bHV0) VH: QVHLVQSGSELKKPGASVKISCKASGYTFTNYGMNWVRQAPGQGLEWMGWINTNTGEPTYTEEFKGRFVFSLDTSVTTSYLQISTLKAEDTAVYFCARDEGWFVYWGQGTLVTVSS VL: ETTVTQSPSSLSVSVGDRVTITCITSTDIDDDMNWYQQKPGKAPKLLISEGNTLRPGVPSRFSSSGSGTDFTFTISSTQPEDFADYYCLQTDSVPLTFGQGTKLEIK"
  reported: 6.69

input: # lookup: EC50 of hzKM5320 LV1bHV0 antibody (antibody, V domains shown, Humanized; variant human IgG4 constant region (EU S228P, L235E, R409K), human kappa; also called A-04) VH: QVQLVQSGSELKKPGASVKVSCKASGYTFTNYGMNWVRQAPGQGLEWMGWINTETGEPTYSDDFKGRFVFSLDTSVSTAYLQISSLKAEDTAVYYCAREDGYYGTLDYWGQGTTVTVSS VL: DVVMTQSPDSLAVSLGERVTINCKASQSVSNDVAWYQQKPGQSPKLLIYYASNRYTGVPDRFSGSGSGTDFTLTISSVQAEDVAVYYCQQDYSSPWTFGQGTKLEIK
output: 19.1
